Values from the supplement of paper PMC9694430

Test system: LOC_OS03G50450-cb001;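 also: purified Escherichia coli-expressed rice kinase domain construct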
Measurement notes: thermal shift delta Tm vs DMSO control; higher = stronger stabilization (binding)
Cond: 12.5 µM; protein concentration 2 µM
Measurement type: thermal shift delta Tm

Example results:
COc1ccc([C@@H]2OC[C@H]3[C@@H]2CO[C@@H]3c2ccc(O[C@@H]3O[C@H](CO)[C@@H](O)[C@H](O)[C@H]3O)c(OC)c2)cc1OC: 0.11 °C
c1cc(-c2cnn3cc(-c4ccc(OCCN5CCCCC5)cc4)cnc23)ccn1 [Dorsomorphin 2HCl]: 1.81 °C
CC#CC(=O)N1CCC[C@H]1c1nc(-c2ccc(C(=O)Nc3ccccn3)cc2)c2c(N)nccn12: 0.4 °C
COc1ccc(Cl)cc1NC(=O)Nc1cc(C)nc2ccccc12: 0.68 °C
O=C(O)CCC(=O)Nc1ccc(Br)cn1: 0.33 °C
CNC(=O)c1nn(C)c2c1C(C)(C)Cc1cnc(Nc3ccc(N4CCN(C)CC4)cc3)nc1-2: 0.91 °C
COc1cc2ncnc(Nc3cccc(Cl)c3F)c2cc1OC(=O)N1CCN(C)C[C@H]1C: 0.9 °C
Cn1cnc2c(F)c(Nc3ccc(Br)cc3F)c(C(=O)NOCCO)cc21: 0.43 °C

Problem: Query thermal shift delta Tm on LOC_OS03G50450-cb001 for "CNC(=O)c1cc(Oc2ccc(NC(=O)Nc3cc(C(C)(C)C)nn3-c3ccc4ncccc4c3)c(F)c2)ccn1"
Result: 0.33 °C

Problem: Provide the documented thermal shift delta Tm with LOC_OS03G50450-cb001 as the system for "CC(C)Oc1ccc(-c2nn([C@@H](C)c3oc4ccc(F)cc4c(=O)c3-c3cccc(F)c3)c3ncnc(N)c23)cc1F"
Result: -0.25 °C

Problem: What measured thermal shift delta Tm is associated with "O=C1NC(=O)C(c2cnc3ccccn23)=C1c1cn2c3c(cc(F)cc13)CN(C(=O)N1CCCCC1)CC2" on LOC_OS03G50450-cb001?
Result: 0.64 °C

Problem: Fill in the recorded thermal shift delta Tm for this molecule, with LOC_OS03G50450-cb001 as test system: "COc1ncc(-c2cc(-c3ncc(CN4C[C@@H](C)O[C@@H](C)C4)o3)c3cn[nH]c3c2)cc1NS(C)(=O)=O"
Result: 0.64 °C

Problem: What measured thermal shift delta Tm is associated with "CN1CCN(c2ccc(OC(F)(F)F)c(Nc3ncc4c(n3)-c3c(c(C(N)=O)nn3CCO)CC4)c2)CC1" on LOC_OS03G50450-cb001?
Result: -0.04 °C

Problem: Please provide the recorded thermal shift delta Tm for "COc1ccc(F)c(F)c1C(=O)c1cnc(NC2CCN(S(C)(=O)=O)CC2)nc1N" , tested on LOC_OS03G50450-cb001.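 Also: purified Escherichia coli-expressed rice kinase domain construct.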
Result: 0.18 °C

Problem: Param readout = thermal shift delta Tm; param system = LOC_OS03G50450-cb001; param query = "C=CC(=O)Nc1cccc(C)c1Nc1ncc2cc(-c3c(Cl)c(OC)cc(OC)c3Cl)ccc2n1" ; response: value;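 also: purified Escherichia coli-expressed rice kinase domain construct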
Result: 0.23 °C

Problem: Request - read-out thermal shift delta Tm | tested on LOC_OS03G50450-cb001 | molecule "O=S(=O)(c1cccc2c(I)cccc12)N1CCCNCC1"
Result: 0.19 °C

Problem: Provide the documented thermal shift delta Tm with LOC_OS03G50450-cb001 as the system for "Nc1ncnc2c1c(-c1cnc3[nH]ccc3c1)nn2C1CCCC1"
Result: 0.86 °C
